Attribution: PubChem BioAssay

Consider the following compounds and their measured z-score readings.
Test: viability profiling in MM1S myeloma cells – cell-based, resazurin fluorescence, basal, 24 h, PK04 Diversity Set, profiling panel (AID 1174);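 further: MM1S multiple myeloma cell line; test concentration not given here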
Details: higher = more signal, called active from +8 up or from −8 down
Respond with the number and no other words.

COc1ccc(NC(=O)O[C@H]2[C@H](OC(=O)c3cc4ccccc4[nH]3)[C@@H](OC(=O)c3cc4ccccc4[nH]3)[C@@H](OC)O[C@@H]2CO)cc1 -1.68
NCCCCCNC(=O)[C@H]1C[C@H]2C(=O)N3CCC[C@H]3C(=O)N2[C@H]1c1ccc(O)cc1 -0.225

Lookup: Any idea what its z-score is? The compound is "O=C1O[C@H](c2ccccc2)[C@H](c2ccccc2)N2[C@H]1[C@@H](C(=O)NC[C@H](O)c1ccccc1)[C@]1(C(=O)Nc3ccc(C#CC4=CCCCC4)cc31)[C@H]2c1ccccc1OCCO"
Found: -6.77

###

Tested on: Chordin-like protein 2 (CHRDL2)
Assay: compounds binding chordin-like 2 – biochemical, small-molecule microarray, 635 nm fluorescence, primary screen (AID 1126);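 further: printed compound slides probed with Chrdl2 protein at 4 µg/mL for 1 h at 4 C; score merges 667 nm emission intensity with signal to noise over three replicate slides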
Conditions: fluorescence 635 nm, higher = more signal
MEASURED_QUANTITY: composite z-score
Answer field: number only, no words.

Example entries and their recorded answers appear below.
COC(=O)c1c(CC[C@@H](CO)NC(=O)N[C@H](Cc2ccccc2)Cn2cc(-c3ccccn3)nn2)oc(C(C)=O)c1C(=O)OC -0.418
COc1ccc([C@H]2C[C@H]3C(I)=C[C@@H]2C(=O)[C@]32CO2)cc1 0.189
CC[C@@H]1C=C(C(=O)O)[C@H](c2ccc(C)cc2)N1S(=O)(=O)c1ccc(C)cc1 -0.697

We next turn to a different compound, shown below.
Lookup: Fill in the blank: the reported composite z-score of "COC(=O)[C@H](Cc1ccccc1)N[C@H](/C=C/C1CC1)[C@@H](O)Cc1ccccc1" is ____.
Found: -0.318

###

Target: Dihydroorotate dehydrogenase (quinone), mitochondrial (Plasmodium falciparum (isolate 3D7)) (UniProt Q08210)
Sequence (Q08210 whole entry, looked up): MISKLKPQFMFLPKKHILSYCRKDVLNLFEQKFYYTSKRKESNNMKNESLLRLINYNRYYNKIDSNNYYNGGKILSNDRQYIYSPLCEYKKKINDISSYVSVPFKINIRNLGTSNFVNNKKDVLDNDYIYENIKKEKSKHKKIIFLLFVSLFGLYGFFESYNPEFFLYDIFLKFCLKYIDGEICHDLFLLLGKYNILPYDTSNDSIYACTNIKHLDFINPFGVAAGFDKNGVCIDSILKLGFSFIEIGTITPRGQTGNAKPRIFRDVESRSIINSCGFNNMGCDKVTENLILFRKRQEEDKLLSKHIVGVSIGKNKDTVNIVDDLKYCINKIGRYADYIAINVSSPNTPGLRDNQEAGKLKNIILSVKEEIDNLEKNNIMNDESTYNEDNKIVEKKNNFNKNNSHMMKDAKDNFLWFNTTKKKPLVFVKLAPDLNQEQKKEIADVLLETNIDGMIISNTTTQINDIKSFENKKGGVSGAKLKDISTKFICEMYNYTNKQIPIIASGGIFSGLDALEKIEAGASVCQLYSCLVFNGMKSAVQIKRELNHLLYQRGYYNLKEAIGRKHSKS
Assay: inhibition of P. falciparum DHODH – biochemical, C-terminal His tag, absorbance 600 nm, primary screen (AID 1175);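 further: recombinant parasite enzyme with a five histidine tag at its C terminus; test concentration not given here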
Conditions: PfDHODH enzyme, DCIP absorbance 600 nm; higher = more signal, called active from +8 up or from −8 down
MEASURED_QUANTITY: composite z-score
A bare number is all that is needed in reply.

Known composite z-score results, listed for orientation:
COMPOUND	composite z-score
C=C(CCCC)/C(=C/C[C@@H](OC(C)=O)c1cccc(OCCO)c1)c1cnc2ccccc2c1	-3.06
O=C(NC1CC1)[C@@H]1c2ccccc2C(=O)N(C2Cc3ccccc3C2)[C@H]1c1ccc(CO)cc1	-0.0711
Cc1ccc(S(=O)(=O)N2C[C@@H](C(=O)O)[C@H](Sc3ccccc3)C[C@H]2c2ccccc2)cc1	-1.43
NC(=O)[C@@]1(Cc2ccccc2)N=C(c2ccc(OCCCO)cc2)O[C@H]1c1ccccc1	0.842
CCCCC(=C=CC[C@@H](O)c1cccc(OCCO)c1)C[C@@H](O)c1ccccn1	-1.42
COC(=O)c1c(CC[C@@H](CO)NC(=O)NCCc2c[nH]c3ccccc23)oc(C(=O)Cc2ccccc2)c1C(=O)OC	-2.63
C=CCC(OC(C)=O)[C@@H]1[C@@H](N(Cc2ccc(-c3ccccc3)cc2)C(=O)Cc2ccc(F)cc2)c2cc(OCCCO)ccc2N1C(=O)c1ccc2ccccc2c1 (stereo not given in full)	0.683
C#CCN1[C@@H](Cc2ccc(O)cc2)C(=O)O[C@H](Cc2ccccc2)[C@@H]1/C=C/C1CC1	-0.652

Lookup: Returns the measured composite z-score for the input compound. Input: "C=CC[C@@]1(C(=O)N2CCCCC2)N=C(c2ccc(OCCCO)cc2)O[C@@H]1c1ccccc1N=[N+]=[N-]"
Found: 0.479

Lookup: Look up composite z-score: "C=C(CCCC)/C(=C/C[C@@H](OC(C)=O)c1ccccc1OCCO)c1cc(C(=O)OC)ccc1OC"
Found: -0.04

Lookup: Sample "COCCOC(=O)N1C(=O)[C@@]2(c3cc(C#CC4(O)CCCCCC4)ccc31)[C@H](C(=O)Nc1nc3ccccc3s1)[C@H]1C(=O)O[C@H](c3ccccc3)[C@H](c3ccccc3)N1[C@@H]2c1ccc(OCCO)cc1" — what was its composite z-score?
Found: 0.901

Lookup: Which composite z-score value belongs to "C[N+](C)(C)CCCCCCNC(=O)[C@H]1C[C@H]2C(=O)N[C@@H](Cc3ccccc3)C(=O)N2[C@H]1c1cccc(OCCO)c1" ?
Found: -1.22

Lookup: Looking for the measured composite z-score of "COc1ccc([Si](C)(C)[C@H]2[C@H](CCn3cc([C@H](O)c4ccccc4)nn3)O[C@@]3(C(=O)N(C)c4ccccc43)[C@@H]2C)cc1" , can you help?
Found: -0.778

Lookup: May I ask what composite z-score has been recorded for [N-]=[N+]=Nc1ccccc1C[C@]1(C(=O)NCC(O)CO)N=C(c2ccc(OCCCO)cc2)O[C@H]1c1ccccc1 (stereo not given in full) ?
Found: 0.986

Lookup: Bench note: what composite z-score did "COC(=O)C[C@H]1O[C@@H](CCc2ccccc2)[C@@H](C)[C@@H]1[Si](C)(C)c1ccc(OC)cc1" show?
Found: 0.656

###

composite z-score for assorted compounds
Molecular target: Calmodulin-1 (Homo sapiens)
Experiment: small molecules binding calmodulin-1 with EGTA – biochemical, small-molecule microarray, Cy5-labelled CALM1, profiling panel (AID 1111);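 further: labelled calmodulin applied in Tris saline Tween buffer holding calcium plus EGTA and DTT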
Details: Cy5-CALM1 binding fluorescence, higher = more signal
The answer should be written as a number, with no unit following it.

Look over these answered cases.
COMPOUND	composite z-score
COC(=O)c1c(CC[C@@H](CO)NC(=O)N[C@H](Cc2ccccc2)Cn2cc(-c3ccccn3)nn2)oc(C(C)=O)c1C(=O)OC	0.475
CN1C(=O)C2C=CC(C(O)c3ccc(F)cc3)N(N(c3ccccc3)c3ccccc3)C2C1=O (configuration not stated)	0.49
C[N+](C)(C)CCCCCCNC(=O)[C@H]1C[C@H]2C(=O)N[C@@H](Cc3ccccc3)C(=O)N2[C@H]1c1cccc(OCCO)c1	-0.96
CCCCCN1CC=CC23O[C@@H]4C=CCOC(=O)[C@@H]4[C@H]2C(=O)N(C(C)CO)[C@@H]3C1=O (some centres not stated)	-0.0225
Cc1ccc(S(=O)(=O)N2C[C@@H](C(=O)O)[C@H](Sc3ccccc3)C[C@H]2c2ccccc2)cc1	1.61
C=CC[C@]1(C(N)=O)COC(c2ccc(OCCCO)cc2)=N1	-0.257

Lookup: Reported composite z-score, compound "COC(=O)C[C@H]1O[C@@H](CCc2ccccc2)[C@@H](C)[C@@H]1[Si](C)(C)c1ccc(OC)cc1" : ____
Found: -0.606

Lookup: Entry under review: "Cc1ccc(S[C@]2(C(=O)O)CC(=O)N(C(C)C)[C@@H]2c2ccc(CO)cc2)cc1" . Reported composite z-score?
Found: -0.0058

Lookup: # lookup: composite z-score of "CC[C@@H]1C=C(C(=O)O)[C@H](c2ccc(C)cc2)N1S(=O)(=O)c1ccc(C)cc1"
Found: 0.846

Lookup: I am curious: what composite z-score value has been reported for CN1C(=O)C2C=CC(C(O)c3c(F)cccc3Cl)N(NC(=O)OC(C)(C)C)C2C1=O (configuration not stated) ?
Found: 2.03

Lookup: Recorded composite z-score for [N-]=[N+]=NCc1ccccc1C[C@@]1(C(=O)NCC(O)CO)N=C(c2ccc(OCCCO)cc2)O[C@@H]1c1ccccc1 (some centres not stated) , please?
Found: 0.899

Lookup: Returns the measured composite z-score for the input compound. Input: "CO[C@H]1O[C@H](CO)[C@@H](OC(=O)Nc2cccc(F)c2)[C@H](OC(=O)Nc2ccccc2)[C@H]1OC(=O)Nc1ccccc1"
Found: 0.183

Lookup: Form field: reported composite z-score of CCCCN1CC=CC23O[C@@H]4C=CCCOC(=O)C4[C@H]2C(=O)N(CCCCCO)[C@@H]3C1=O (some centres not stated)
Found: -0.107

Lookup: # lookup: composite z-score of CC(C)N1CC=CC23O[C@@H]4C=CCOC(=O)[C@@H]4[C@H]2C(=O)N(CCCCCO)[C@@H]3C1=O (some centres not stated)
Found: 0.0459

Lookup: Given "COc1ccc([C@H]2C[C@H]3C(Br)=C[C@@]2(CO)C(=O)[C@]32CO2)cc1" , state its recorded composite z-score.
Found: -0.282

###

Some molecules, each annotated with its measured composite z-score.
Molecular target: Concanavalin-A (Canavalia ensiformis)
Experiment: compounds binding concanavalin A lectin – biochemical, small-molecule microarray, Alexa647 label, 635 nm, artefact control for SMM control protein annotation, primary screen (AID 1127);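 further: z combines 667 nm emission intensity with signal-to-noise across three replicate slides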
Details: ConA-A647 binding fluorescence, higher = more signal
I only need the number, thanks.

MOLECULE	TEST_RESULT
COc1ccc(C#Cc2ccc3c(c2)[C@]2(C(=O)N3)[C@H](c3ccc(O)cc3)N3[C@H](c4ccccc4)[C@H](c4ccccc4)OC(=O)[C@H]3[C@@H]2C(=O)N2CCc3cc(OC)c(OC)cc3C2)cc1	1.12

Lookup: Lab request: please report composite z-score under test system Concanavalin-A (Canavalia ensiformis) for "COc1ccccc1CN1C(=O)c2ccccc2[C@@H](C(=O)NCc2ccccc2)[C@@H]1c1ccc(CO)cc1"
Found: 0.305

Lookup: Quick check: composite z-score on Concanavalin-A (Canavalia ensiformis), item CCCCCCCCCCC(O)C1C=CC2C(=O)NC(=O)C2N1Nc1ccc(Cl)cc1Cl (configuration not stated) ?
Found: 0.248

Lookup: Notebook: pull reported composite z-score for Concanavalin-A (Canavalia ensiformis), entry "O=C1O[C@@H](c2ccccc2)[C@@H](c2ccccc2)N2[C@@H](c3ccc(OCCO)cc3)[C@]3(C(=O)Nc4ccc(C#CCCO)cc43)[C@@H](C(=O)NC[C@H](O)c3ccccc3)[C@H]12"
Found: 1.07

Lookup: Item: C=CCC(OC(C)=O)[C@@H]1[C@@H](N(Cc2ccc(-c3cccc(C(F)(F)F)c3)o2)C(=O)c2cccc3ccccc23)c2cc(OCCCO)ccc2N1C(=O)Cc1ccc2ccccc2c1 (some centres not stated) Test system: Concanavalin-A (Canavalia ensiformis) Read-out: composite z-score Value: ?
Found: -0.146

Lookup: Give Concanavalin-A (Canavalia ensiformis) composite z-score for "O=C(O)[C@@]1(CCS(=O)(=O)c2ccccc2)N=C(c2ccc(OCCCO)cc2)O[C@H]1c1ccccc1"
Found: 0.766
